Parameter: protein stability index. Scope: all listed entries.
B1: ISL2 (parent)
chain: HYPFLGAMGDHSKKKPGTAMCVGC

variants of: B1; assay: protein stability index of a GFP-peptide fusion (GPS, HEK-293T) (PSI 1-6); higher = more stable; settings: c terminus: a fixed tail appended;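 also: lentivirally expressed fusions sorted by FACS into six bins by GFP to DsRed ratio, PSI derived from sequencing read proportions per bin multiplied by bin number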
Assay Metric: protein stability index

[[record]]
biosequence = "HYPQLGAMGDHSKKKPGTAMCVGC [F4Q]"
measured_result = 3.58

[[record]]
biosequence = "HYPFLGAMGDHSKKKPGTAMDVGC [C21D]"
measured_result = 2.96

[[record]]
biosequence = "HYPFLGAMGDHSKPKPGTAMCVGC [K14P]"
measured_result = 2.98

[[record]]
biosequence = "HYPFLGAKGDHSKKKPGTAMCVGC [M8K]"
measured_result = 3

[[record]]
biosequence = "HYPFLGAMGDHSKKPPGTAMCVGC [K15P]"
measured_result = 2.4

[[record]]
biosequence = "HVPFLGAMGDHSKKKPGTAMCVGC [Y2V]"
measured_result = 2.6

[[record]]
biosequence = "HYPALGAMGDHSKKKPGTAMCVGC [F4A]"
measured_result = 3.75

[[record]]
biosequence = "HYPFLGAMGDHSKKKPGTAMCVKC [G23K]"
measured_result = 3.18

[[record]]
biosequence = "HYPFLGAMGDHSKRKPGTAMCVGC [K14R]"
measured_result = 2.67

[[record]]
biosequence = "HYPFLGAMGDHSKKYPGTAMCVGC [K15Y]"
measured_result = 2.02

[[record]]
biosequence = "HYPFLNAMGDHSKKKPGTAMCVGC [G6N]"
measured_result = 2.54

[[record]]
biosequence = "HYPFLGAMGDHYKKKPGTAMCVGC [S12Y]"
measured_result = 2.48

[[record]]
biosequence = "HYPFLGNMGDHSKKKPGTAMCVGC [A7N]"
measured_result = 3.6

[[record]]
biosequence = "HYPFLYAMGDHSKKKPGTAMCVGC [G6Y]"
measured_result = 2.49

[[record]]
biosequence = "HYPFLGAMGDHSKKSPGTAMCVGC [K15S]"
measured_result = 2.52

[[record]]
biosequence = "HYPFLGAMGDHSKKKPGTAICVGC [M20I]"
measured_result = 2.29

[[record]]
biosequence = "MYPFLGAMGDHSKKKPGTAMCVGC [H1M]"
measured_result = 1.82

[[record]]
biosequence = "HYPFLGAMGDHSKKKPSTAMCVGC [G17S]"
measured_result = 2.75

[[record]]
biosequence = "HYPFLGAMGDHSKKKPGFAMCVGC [T18F]"
measured_result = 2

[[record]]
biosequence = "KYPFLGAMGDHSKKKPGTAMCVGC [H1K]"
measured_result = 2.62

[[record]]
biosequence = "HYPFLGAMGDHSKKKPGTKMCVGC [A19K]"
measured_result = 2.8

[[record]]
biosequence = "HYPFLGAMGDHSKKKPGTAMCIGC [V22I]"
measured_result = 2.08

[[record]]
biosequence = "HYPFLGIMGDHSKKKPGTAMCVGC [A7I]"
measured_result = 1.9

[[record]]
biosequence = "HYPFLGAMGCHSKKKPGTAMCVGC [D10C]"
measured_result = 2.6

[[record]]
biosequence = "HDPFLGAMGDHSKKKPGTAMCVGC [Y2D]"
measured_result = 4.76

[[record]]
biosequence = "HQPFLGAMGDHSKKKPGTAMCVGC [Y2Q]"
measured_result = 3.04

[[record]]
biosequence = "HYPFLGAMGDHSKKKPGRAMCVGC [T18R]"
measured_result = 1.81

[[record]]
biosequence = "HRPFLGAMGDHSKKKPGTAMCVGC [Y2R]"
measured_result = 2.94

[[record]]
biosequence = "HYPFLGAYGDHSKKKPGTAMCVGC [M8Y]"
measured_result = 2.51

[[record]]
biosequence = "HYPFLGAMGDHSKKKEGTAMCVGC [P16E]"
measured_result = 3.07

[[record]]
biosequence = "HYPFHGAMGDHSKKKPGTAMCVGC [L5H]"
measured_result = 2.96

[[record]]
biosequence = "HYPFLGAMGDHSKMKPGTAMCVGC [K14M]"
measured_result = 2.91

[[record]]
biosequence = "HYPFLGAMGDHSKKKPGTAMCRGC [V22R]"
measured_result = 3.57

[[record]]
biosequence = "HYPFLGAMGDHSKKCPGTAMCVGC [K15C]"
measured_result = 3.46

[[record]]
biosequence = "HYKFLGAMGDHSKKKPGTAMCVGC [P3K]"
measured_result = 2.15

[[record]]
biosequence = "HYPFLGAMGDHMKKKPGTAMCVGC [S12M]"
measured_result = 1.92

[[record]]
biosequence = "HYPFLGAMGDHSKKDPGTAMCVGC [K15D]"
measured_result = 2.75

[[record]]
biosequence = "HYPFLGAMGDHSKKKPGTTMCVGC [A19T]"
measured_result = 2.76

[[record]]
biosequence = "HYPFLGAMGDHSKKKPGTAMCVPC [G23P]"
measured_result = 3.31

[[record]]
biosequence = "HYPFLGAMGDHSKKKPGTAMQVGC [C21Q]"
measured_result = 3.43

[[record]]
biosequence = "HYPFNGAMGDHSKKKPGTAMCVGC [L5N]"
measured_result = 2.49

[[record]]
biosequence = "HYSFLGAMGDHSKKKPGTAMCVGC [P3S]"
measured_result = 2.27

[[record]]
biosequence = "HYPFLGAMGPHSKKKPGTAMCVGC [D10P]"
measured_result = 2.35

[[record]]
biosequence = "HYPFLGAMGDHSKKKPGTAMMVGC [C21M]"
measured_result = 2.28

[[record]]
biosequence = "LYPFLGAMGDHSKKKPGTAMCVGC [H1L]"
measured_result = 2.01


Reference source for all entries: the supplement of paper PMC10567573
